Listed here: items and their measured pIC50.
- Assay Procedure: Inhibition of glycogen phosphorylase (unknown origin) by INPHARMA method
- Parameters: species or system Homo sapiens
pIC50: −log10 of the molar value.

| Compound | pIC50 |
| --- | --- |
| Cn1c(=O)c2c(ncn2C)n(C)c1=O [CAFFEINE] | 4.00 |
| CN1CC[C@H](c2c(O)cc(O)c3c(=O)cc(-c4ccccc4Cl)oc23)[C@H](O)C1 [ALVOCIDIB] | 6.00 |
